System: M4Beu cell line
Test name: Effective dose of compound associated with cystemustine (50 uM), required to reduce by 50% cell survival rate (M4Beu cells)
Type: functional
Condition label: Homo sapiens, read-out: ED50 (the source's name)

[
  {
    "Molecule": "CC(=O)Nc1nc(OCc2ccc(Br)cc2)c2ncn(C3OC(COC(C)=O)C(OC(C)=O)C3OC(C)=O)c2n1 (stereo unspecified)",
    "Target entity": "M4Beu cell line",
    "Display unit": "µM",
    "EC50": 400
  }
]
